# Test system: striatal dopamine receptors
# TEST_SETTINGS: rat, in vivo, ip
Here, each record is paired with measured R/A ratio data.
Reply with the value as a number alone.

Study these solved cases before continuing.
>>> readout_number("CSc1ccc2c(c1)N(CCC1CCCCN1C)c1ccccc1S2 (centres unmarked)")
2.7
>>> readout_number("Clc1ccc2c(c1)C(=C1CCC3CCCCN3C1)c1ccccc1S2 (stereo not drawn) [3-(2-chlorothioxanthen-9-ylidene)quinolizidine, other isomer]")
3.3

Shift focus to the following entry.
I am curious: what R/A ratio value has been reported for Clc1ccc2c(c1)C(=C1CCC3CCCCN3C1)c1ccccc1S2 (stereo not drawn) [3-(2-chlorothioxanthen-9-ylidene)quinolizidine, isomer havin] ? 4.8
